Cited source: paper doi:10.64898/2025.12.19.695307

Experimental Target: SARS-CoV-2 Delta (B.1.617.2) RBD (SARS-CoV-2 Delta (B.1.617.2), L452R)
Assay Details: BLI
Property: Kd; scope: individual binders

Binder | Kd
C092 (antibody, V domains shown) VH: QVQLVQSGAEVKKPGSSVKVSCKASGGSFTNHFISWVRQAPGQGLEWMGRIIPILGTANYAQNFQGRVMMTADKSTSTAYMELSSLRSEDTAVYYCARDSGYSGYGSTYYMDVWGKGTTVTVSS VL: QSVLTQPPSVSGAPGQRVTISCTGSNSNIGAGYDVHWYQQLPGAAPKLLIYGNNNRPSGVPDRFSGSKSDTSASLAITGLQVEDEADYYCQSYDSSLSDSVFGSGTKVTVL | < 2.1 nM
ZL525 (antibody, V domains shown) V domain 1: QVQLVQSGAEVKKPGSSMKVSCQASGGTFSSHPISWIRQAPGQGLEWMGRIIPIAGMTDYGQKFQGRITITADTSTSTSYVELRGLRSQDTAFYYCAKDVGYSDYGSAYYFHTWGQGTLITVSS V domain 2: QSVLTQPPSVSGAPGQRVTISCTGSNSNIGAGYDVHWYQQLPGTAPKLLIYRNNKRPSGVPDRFSGSKSDTSASLAITGLQAEDEAHYYCQSFDSSLGGSLFGGGTKLAVL | < 0.71 nM
R1-32 (antibody, V domains shown) VH: EVQLVESGAEVKKPGSSVKVSCKASGGTFSSYAISWVRQAPGQGLEWMGGIIPILGIANYAQKFQGRVTITADKSTSTAYMELSSLRSEDTAVYYCARENGYSGYGAAANFDLWGRGTLVTVSS VL: QSVLTQPPSVSGAPGQRVTISCTGSSSNIGAGYDVHWYQQLPGTAPKLLIYGNSNRPSGVPDRFSGSKSGTSASLAITGLQAEDEADYYCQSYDSSLSGSVFGGGTKLTVL | > 55 nM
